assay: RPL19A-GFP modulators, yeast TOR pathway, confirmation, cell-based, S. cerevisiae, flow cytometry, cherry picks, mother/daughter gates (AID 2270); details: S. cerevisiae RPL19A-GFP strain, 3 h, measured here: daughter cell gate, at 10 µM, stronger effect = lower value, 100 = same GFP as DMSO wells
Reported Metric: GFP response vs DMSO (%)
Could you give me the number in %? Just the number is fine.

Past entries and their recorded results:
INSERT INTO results (compound, measured) VALUES
  ('N/C(Cc1ccc(Cl)cc1)=N\OC(=O)c1cccc2ccccc12', 82.1),
  ('CSc1ccc(/C=C/C(=O)c2ccc(NC(C)=O)cc2)cc1', 93.2),
  ('COc1cccc(CC(=O)OC(C)C(=O)Nc2ncc(Cl)cc2Cl)c1 (configuration not stated)', 99.8),
  ('O=S(=O)(/N=C(/Sc1ccccc1)c1ccccc1)c1ccccc1', 92.5),
  ('CCc1nnc(NC(=O)c2ccc(S(=O)(=O)N(CC)Cc3ccccc3)cc2)o1', 97.8),
  ('C=CCn1c(=O)c(C(=O)Nc2ccccc2C(=O)OCC)c(O)c2ccccc21', 101),
  ('C=CCn1c(C)c(/C=C/c2cc[n+](C)cc2)c2ccccc21', 99.8),
  ('Oc1ccc(C2Nc3cccc4cccc(c34)N2)cc1', 99.2),
  ('CCc1nnc(NC(=O)c2ccc(S(=O)(=O)N3CCCC(C)C3)cc2)o1 (configuration not stated)', 99.1),
  ('Brc1cc(Br)c2nc(-c3cccs3)ccc2c1', 99.1);

## Task Could you tell me which GFP response vs DMSO is on file for `c1ccc(-c2n[nH]c3ccccc23)cc1` ?
## Result 97.1

## Task Could you tell me which GFP response vs DMSO is on file for `COc1ccc(NC(=O)Nc2ccon2)c(OC)c1` ?
## Result 102

## Task Could you tell me which GFP response vs DMSO is on file for `CCc1nnc(NC(=O)c2ccc(S(=O)(=O)N(CC(C)C)CC(C)C)cc2)o1` ?
## Result 97.6

## Task Could you tell me which GFP response vs DMSO is on file for `Cc1cccc(CSc2cccc3cccnc23)c1` ?
## Result 91.3

## Task Could you tell me which GFP response vs DMSO is on file for `CCCCCCc1cc2cc(-c3nnc(-c4ccccc4OC)o3)c(=O)oc2cc1O` ?
## Result 99.3

## Task Could you tell me which GFP response vs DMSO is on file for `Cc1occc1-c1nnc(-c2cc([N+](=O)[O-])cc([N+](=O)[O-])c2)o1` ?
## Result 82.8

## Task Could you tell me which GFP response vs DMSO is on file for `Cc1ccc(-n2nnnc2C(Cl)(Cl)c2nnnn2-c2ccc(C)cc2)cc1` ?
## Result 98.8
